# Assay system: T1, ARM repeat domain of human β-catenin (residues 134–671) (human, UniProt P35222 134-671)
# T1 construct: β-catenin, human, ARM repeat domain, residues 134–671; Plasmid was a gift from W.I. Weis; source: E. coli C41, purified (glutathione-Sepharose 4B, thrombin cleavage on resin, Mono-Q)
# T1 sequence (looked up): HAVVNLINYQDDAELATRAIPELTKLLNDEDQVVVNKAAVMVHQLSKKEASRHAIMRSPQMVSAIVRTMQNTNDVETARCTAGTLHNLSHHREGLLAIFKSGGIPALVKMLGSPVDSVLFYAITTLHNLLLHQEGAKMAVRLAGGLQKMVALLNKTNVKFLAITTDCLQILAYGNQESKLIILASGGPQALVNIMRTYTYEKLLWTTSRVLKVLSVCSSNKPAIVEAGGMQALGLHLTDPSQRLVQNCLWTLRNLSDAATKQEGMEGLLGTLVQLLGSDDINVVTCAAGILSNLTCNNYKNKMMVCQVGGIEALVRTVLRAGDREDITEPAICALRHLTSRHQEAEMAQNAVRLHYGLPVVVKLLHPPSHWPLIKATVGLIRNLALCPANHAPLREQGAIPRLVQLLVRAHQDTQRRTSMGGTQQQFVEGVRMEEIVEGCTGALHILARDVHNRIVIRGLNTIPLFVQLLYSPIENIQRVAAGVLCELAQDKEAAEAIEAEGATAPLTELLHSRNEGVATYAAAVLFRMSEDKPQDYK
# Test: stopped-flow fluorescence kinetics (association); 10 nM fluorescein-labelled TCF7L2 mixed 1:1 with 100–1000 nM unlabelled β-catenin, pseudo-first-order; PBS, 1 mM DTT, 15 °C; kon from the linear fit of kobs against β-catenin concentration
# Measurement parameters: both partners purified
No end group written: not given here.
Quantity measured: kon

{"Binder": "TCF7L2 (1–54) S31C D23A, fluorescein-labelled (domain or fragment, UniProt Q9NQB0 1-54, looked up, One extra serine is left behind after thrombin cleavage of the tag; source: E. coli C41, purified (Ni-NTA, thrombin cleavage, Superdex 75), labelled with fluorescein maleimide) MPQLNGGGGDDLGANDELISFKAEGEQEEKC(fluorescein maleimide)SENSSAERDLADVKSSLVNESET", "Quantity measured": "kon", "Measured result": "5.31e+07 M⁻¹ s⁻¹"}
{"Binder": "TCF7L2 (1–54) S31C E17A, fluorescein-labelled (domain or fragment, UniProt Q9NQB0 1-54, looked up, One extra serine is left behind after thrombin cleavage of the tag; source: E. coli C41, purified (Ni-NTA, thrombin cleavage, Superdex 75), labelled with fluorescein maleimide) MPQLNGGGGDDLGANDALISFKDEGEQEEKC(fluorescein maleimide)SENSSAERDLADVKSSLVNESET", "Quantity measured": "kon", "Measured result": "6.3e+07 M⁻¹ s⁻¹"}
{"Binder": "TCF7L2 (1–54) S31C L12A, fluorescein-labelled (domain or fragment, UniProt Q9NQB0 1-54, looked up, One extra serine is left behind after thrombin cleavage of the tag; source: E. coli C41, purified (Ni-NTA, thrombin cleavage, Superdex 75), labelled with fluorescein maleimide) MPQLNGGGGDDAGANDELISFKDEGEQEEKC(fluorescein maleimide)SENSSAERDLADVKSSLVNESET", "Quantity measured": "kon", "Measured result": "7.19e+07 M⁻¹ s⁻¹"}

Data credit: paper PMC8228192
